B1: glmS ribozyme (parent)
chain: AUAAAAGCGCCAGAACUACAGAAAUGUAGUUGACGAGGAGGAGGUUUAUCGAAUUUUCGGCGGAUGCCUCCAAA

# Variants of: B1
# measurementDescription: self-cleavage kobs at 640 uM GlcN6P; higher = faster cleavage; RNA array
# measurementContext: with glucosamine-6-phosphate
This sample holds only a part of the variants without activity.
resultType: self-cleavage kobs at 640 uM GlcN6P (s⁻¹)
Express it in s⁻¹; write the number only.

{"mutationAnnotation": "G13U A39G C67A", "self-cleavage kobs at 640 uM GlcN6P, s⁻¹": "9.82e-05"}
{"mutationAnnotation": "G13A C50G C61G", "self-cleavage kobs at 640 uM GlcN6P, s⁻¹": 0.000203}
{"mutationAnnotation": "A39U U69G", "self-cleavage kobs at 640 uM GlcN6P, s⁻¹": "4.85e-05"}
{"mutationAnnotation": "A14C U56G U57A C71A", "self-cleavage kobs at 640 uM GlcN6P, s⁻¹": "8.95e-05"}
{"mutationAnnotation": "G37A U47G U55G", "self-cleavage kobs at 640 uM GlcN6P, s⁻¹": 0.000101}

Please fill in: self-cleavage kobs at 640 uM GlcN6P reported for A14G U45C = 0.00149

For this variant ( A48U U54G C70U ), measured self-cleavage kobs at 640 uM GlcN6P is 0.000139
